The reported numbers originate from PubChem BioAssay (NCI).

- System: BT-549 breast
- EXPERIMENT: NCI-60 one-dose screen, 48 h (100 = growth as untreated, 0 = no growth, -100 = all killed)
- STATED_CONDITIONS: 10 µM unless noted
About 83,000 compounds went through this panel and 20% of them were active in at least one assay; those are over-represented in the sample as a whole.
MEASURED_METRIC: growth (%)
Number in %, nothing else.

CCN(CC)CCC(C(=O)O)(c1ccccc1)c1ccccc1
95.6
Nc1nccc2c1ccn2-c1ccc(NC(=O)c2ccc(N3CCOCC3)c(C(F)(F)F)c2)cc1
26.5
COc1ccc(-c2nn(-c3ccc(NC(=O)c4ccc(Cl)c(C(F)(F)F)c4)cc3)cc2-c2ccncc2)cc1Cl
40.5
N#Cc1c(N)nc(Cl)c(C#N)c1C(=O)c1ccccc1
24.9

Would you kindly share the measured growth for CCCC(=O)Oc1ccc(/C(=C(\C)c2ccc(OC)cc2)c2ccc(OCCN3CCCCC3)cc2)cc1 ?
82.2
